Measured values drawn from patent US20240254138A1 for this set.

Biological target: CDK7/cyclinH/MAT1 trimeric complex (Homo sapiens, UniProt P50613)
Sequence (P50613 whole entry): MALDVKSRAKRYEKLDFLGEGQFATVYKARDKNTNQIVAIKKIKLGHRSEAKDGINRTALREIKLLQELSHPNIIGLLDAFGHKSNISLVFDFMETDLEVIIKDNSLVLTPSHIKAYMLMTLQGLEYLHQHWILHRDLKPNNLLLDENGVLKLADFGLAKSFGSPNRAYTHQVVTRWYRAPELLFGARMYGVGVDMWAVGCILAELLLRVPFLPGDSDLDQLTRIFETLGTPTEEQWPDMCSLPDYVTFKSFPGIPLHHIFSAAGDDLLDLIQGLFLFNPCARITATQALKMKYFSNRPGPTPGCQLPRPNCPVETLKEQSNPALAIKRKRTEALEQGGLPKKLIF
Sequence (P51946 whole entry partner): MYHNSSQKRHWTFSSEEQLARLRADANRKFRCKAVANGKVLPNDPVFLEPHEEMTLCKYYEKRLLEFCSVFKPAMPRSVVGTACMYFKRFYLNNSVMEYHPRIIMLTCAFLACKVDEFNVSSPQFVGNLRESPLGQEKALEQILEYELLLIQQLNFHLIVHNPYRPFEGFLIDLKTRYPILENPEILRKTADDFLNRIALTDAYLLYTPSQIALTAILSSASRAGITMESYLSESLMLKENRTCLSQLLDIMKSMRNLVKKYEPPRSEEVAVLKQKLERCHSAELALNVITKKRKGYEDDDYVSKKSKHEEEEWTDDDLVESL
Sequence (P51948 whole entry partner): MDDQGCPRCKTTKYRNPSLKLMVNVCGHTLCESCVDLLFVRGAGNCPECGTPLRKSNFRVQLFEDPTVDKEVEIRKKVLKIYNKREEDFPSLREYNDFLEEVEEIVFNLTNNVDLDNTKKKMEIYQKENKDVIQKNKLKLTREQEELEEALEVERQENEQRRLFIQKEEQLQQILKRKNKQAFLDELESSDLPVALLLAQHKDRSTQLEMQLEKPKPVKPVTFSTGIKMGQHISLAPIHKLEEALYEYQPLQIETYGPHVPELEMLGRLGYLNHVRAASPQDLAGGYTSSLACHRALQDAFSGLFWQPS
Test: In vitro CDK7 assay, potency of irreversible covalent inhibitors (kinact/KI), coupled PK/LDH ADP readout at 340 nm
Details: read-out: CDK7 (20 nM enz.) (kinact/KI, M^−1*s^−1), 20 nM enzyme
observation-type: kinact/KI (M⁻¹ s⁻¹)

# molecule, kinact/KI, M⁻¹ s⁻¹
rows = [
    ("CC#CC(=O)N1CC(N2CC[C@@H](c3cc4c(c(C)n3)O[C@H](C)c3c(N5CCOCC5)ccnc3N4)C2)C1 (single isomer, unassigned) [Compound 308]", 34.8),
]

(I) C=CC(=O)N1CC[C@H](N2CC(c3cc4c(c(C5CC5)n3)O[C@@H](C)c3c(N5CCOCC5)ccnc3N4)C2)C1 (single isomer, unassigned) [Compound 466]
(II) C=CC(=O)N1CC[C@H](N2CC(c3cc4c(c(C5CC5)n3)O[C@H](C)c3c(N5CCOCC5)ccnc3N4)C2)C1 (single isomer, unassigned) [Compound 463]
Q: Out of I and II , name the one with the higher kinact/KI. # reply format: chosen label
A: I

====

Target: CDK7/cyclinH/MAT1 trimeric complex (Homo sapiens, UniProt P50613)
Assay: In vitro CDK7 assay, potency of irreversible covalent inhibitors (kinact/KI), coupled PK/LDH ADP readout at 340 nm
Conditions: read-out: CDK7 (20 nM enz.) (kinact/KI, M^−1*s^−1), 20 nM enzyme
observation-type: kinact/KI (M⁻¹ s⁻¹)

(I) C=CC(=O)N1CC(c2ncc(-c3cc(C)c4c(c3)Nc3nccc(N5CCS(=O)(=O)CC5)c3CO4)cn2)C1
(II) C=CC(=O)Nc1ccc(CNc2ccc3c(c2)Nc2nccc(N4CCOCC4)c2CO3)cn1
Q: Out of I and II , name the one with the higher kinact/KI. # reply format: chosen label
A: II
(II: 1160 M⁻¹ s⁻¹, I: 101 M⁻¹ s⁻¹)

(P) CC#CC(=O)N1CC[C@H](N2CC(c3cc4c(c(C5CC5)n3)O[C@H](C)c3c(N5CCOCC5)ccnc3N4)C2)C1 (single isomer, unassigned)
(Q) C=CC(=O)N1CC[C@@H](N2CC(c3cc(C)c4c(c3)Nc3nccc(N5CCOCC5)c3CO4)C2)[C@H](F)C1 (mixture of isomers)
Q: Could you tell me which of these two has the smaller kinact/KI figure? First: P Second: Q # reply format: chosen label
A: P
(P: 9.02 M⁻¹ s⁻¹, Q: 865 M⁻¹ s⁻¹)

(I) C=CC(=O)N1CC(N2CCC(c3cc4c(cn3)OCc3c(C5CCOCC5)ccnc3N4)CC2)C1
(II) C#CCCN(C)C/C=C/C(=O)N1CC(N2CCC(c3ccc4c(c3)Nc3nccc(N5CCOCC5)c3C(C)O4)CC2)C1 (stereo not drawn) [Compound 146]
Q: Could you tell me which of these two has the smaller kinact/KI figure? First: I Second: II # reply format: chosen label
A: I

====

Biological target: CDK7/cyclinH/MAT1 trimeric complex (Homo sapiens, UniProt P50613)
Test: In vitro CDK7 assay, potency of irreversible covalent inhibitors (kinact/KI), coupled PK/LDH ADP readout at 340 nm
Settings: read-out: CDK7 (20 nM enz.) (kinact, s^−1), 20 nM enzyme
observation-type: kinact (s⁻¹)

Examples with answers:
# compound, experimental-value
records = [
    ("C=CC(=O)N1CC[C@@H](N2CC(c3cc(C)c4c(c3)Nc3nccc(N5CCOCC5)c3CO4)C2)C1 (single isomer, unassigned) [Compound 327]", "4.16e-05"),
    ("C=CC(=O)N1CC[C@@H](N2CC(c3cc4c(c(C)n3)OCc3c(N5CCOCC5)ccnc3N4)C2)C1 (single isomer, unassigned) [compound 179]", "5.08e-05"),
    ("C#Cc1cc2c(cc1C1CCN(C3CN(C(=O)C=C)C3)CC1)Nc1nccc(N3CCOCC3)c1CO2 [Compound 175]", "4.03e-05"),
]

(I) C=CC(=O)N1CC(N2CC[C@@H](c3cc4c(c(C)n3)O[C@@H](C)c3c(N5CCOCC5)ccnc3N4)C2)C1 (single isomer, unassigned) [Compound 243]
(II) C=CC(=O)N1CCC(N2CCC(c3cc(C)c4c(c3)Nc3nccc(-c5cnn(C)c5)c3CO4)CC2)CC1 [Compound 105]
(III) C=CC(=O)N1CCC(N2CC(c3cc4c(c(C#N)n3)O[C@@H](C)c3c(N5CCOCC5)ccnc3N4)C2)CC1 (single isomer, unassigned) [Compound 491]
Q: rank_up(items): orders items by reported kinact in ascending numerical order. List labels; respect the requested ordering.
A: III, I, II
